# Test: Pharmacokinetics after oral and iv dosing to rats
# Assay type: in vivo, Sprague-Dawley rat
# Condition Context: male, Sprague-Dawley, rat, plasma, po, 5 mg/kg, 5 mg/kg po compared with 1 mg/kg iv, nonfasted Sprague–Dawley rats, mean ± SE, n = 3; read-out: F % (bioavailability)
Field: bioavailability. Provide a value for each of the compounds that follow.
Number only, in %; omit the unit.

Quick check: bioavailability of CC(C)[C@H](NC(=O)[C@H](C)NC(=O)[C@@H](NC(=O)C1CC[N+](C)(C)CC1)C(C)(C)C)C(=O)C(=O)NCc1ccccc1.O=C[O-] [Compound 32] ?
1

Quick check: bioavailability of CC(C)[C@H](NC(=O)[C@H](C)NC(=O)[C@H](Cc1ccccc1)NC(=O)c1ccccc1)C(=O)C(=O)NCC(=O)N1CC[N+](C)(C)CC1.O=C[O-] [Compound 52] ?
0

Quick check: bioavailability of CC(C)[C@H](NC(=O)[C@H](C)NC(=O)[C@@H](N1Cc2ccccc2C1=O)C(C)(C)C)C(=O)C(=O)NCc1ccccc1 [Compound 28] ?
20

Quick check: bioavailability of CC(C)[C@H](NC(=O)[C@H](C)NC(=O)[C@@H](NC(=O)c1ccccc1)C(C)(C)C)C(=O)C(=O)NCc1ccccc1 [Compound 38] ?
33

Quick check: bioavailability of CC(C)[C@H](NC(=O)[C@H](C)NC(=O)[C@@H](NC(=O)c1ccccc1)C(C)(C)C)C(=O)C(=O)NC1CC1 [Compound 35] ?
90
